FYI, the data here is from patent US12258327B2.

- measured.on: UniProtKB P00533
- experiment: Biochemical EGFR kinase assay (Lance Ultra TR-FRET), wildtype
- cond: Km ATP; read-out: IC50 WT (nM) Km ATP
Task for the reader: assign each of the following compounds its reported IC50.
Give the value, in units of nM, as a plain number.

Given the entry O=S(=O)(C1CC1)n1cc(-c2nccc(Nc3cc(NC[C@H]4C[C@H](O)C4)c(-c4ccn(C(F)F)n4)cn3)n2)cn1 , report its measured IC50. 19.4

GET /values?readout=IC50&item= C[C@H](CCF)Nc1cc(Nc2ccnc(-c3cnn(S(=O)(=O)C4CC4)c3)n2)ncc1-c1ccn(C(F)F)n1 294

// returns reported IC50 for input CC(C)(O)[C@H]1CC[C@@H](Nc2cc(Nc3ccnc(-c4cnn(S(=O)(=O)C5CC5)c4)n3)ncc2-c2ccn(CC(F)(F)F)n2)CC1 86.8

Consider the compound O=S(=O)(C1CC1)n1cc(-c2nccc(Nc3cc(NC4CCC5(CC4)CNC5)c(-c4ccn(C(F)F)n4)cn3)n2)cn1 and give its measured IC50. 0.7

Which IC50 is reported for this compound? CNC[C@H]1CC[C@H](CNc2cc(Nc3ccnc(-c4cnn(S(=O)(=O)C5CC5)c4)n3)ncc2-c2ccn(C(F)F)n2)CC1 1.1

Which IC50 is reported for this compound? CCC(C)Nc1cc(Nc2ccnc(-c3cnn(S(=O)(=O)C4CC4)c3)n2)ncc1-c1ccn(CC(F)F)n1 (stereo not shown) 56.1

Using the record for CC(C)Nc1cc(Nc2ccnc(-c3cnn(S(=O)(=O)C4CC4)c3)n2)ncc1-c1ccn(CC(F)F)n1 , report its IC50. 286

* * *

- measured.on: EGFR del19/C797S (Homo sapiens, UniProt P00533, C797S/DEL746-750)
- Sequence (P00533 with tags, fused parts or gaps DEL746-750/C797S): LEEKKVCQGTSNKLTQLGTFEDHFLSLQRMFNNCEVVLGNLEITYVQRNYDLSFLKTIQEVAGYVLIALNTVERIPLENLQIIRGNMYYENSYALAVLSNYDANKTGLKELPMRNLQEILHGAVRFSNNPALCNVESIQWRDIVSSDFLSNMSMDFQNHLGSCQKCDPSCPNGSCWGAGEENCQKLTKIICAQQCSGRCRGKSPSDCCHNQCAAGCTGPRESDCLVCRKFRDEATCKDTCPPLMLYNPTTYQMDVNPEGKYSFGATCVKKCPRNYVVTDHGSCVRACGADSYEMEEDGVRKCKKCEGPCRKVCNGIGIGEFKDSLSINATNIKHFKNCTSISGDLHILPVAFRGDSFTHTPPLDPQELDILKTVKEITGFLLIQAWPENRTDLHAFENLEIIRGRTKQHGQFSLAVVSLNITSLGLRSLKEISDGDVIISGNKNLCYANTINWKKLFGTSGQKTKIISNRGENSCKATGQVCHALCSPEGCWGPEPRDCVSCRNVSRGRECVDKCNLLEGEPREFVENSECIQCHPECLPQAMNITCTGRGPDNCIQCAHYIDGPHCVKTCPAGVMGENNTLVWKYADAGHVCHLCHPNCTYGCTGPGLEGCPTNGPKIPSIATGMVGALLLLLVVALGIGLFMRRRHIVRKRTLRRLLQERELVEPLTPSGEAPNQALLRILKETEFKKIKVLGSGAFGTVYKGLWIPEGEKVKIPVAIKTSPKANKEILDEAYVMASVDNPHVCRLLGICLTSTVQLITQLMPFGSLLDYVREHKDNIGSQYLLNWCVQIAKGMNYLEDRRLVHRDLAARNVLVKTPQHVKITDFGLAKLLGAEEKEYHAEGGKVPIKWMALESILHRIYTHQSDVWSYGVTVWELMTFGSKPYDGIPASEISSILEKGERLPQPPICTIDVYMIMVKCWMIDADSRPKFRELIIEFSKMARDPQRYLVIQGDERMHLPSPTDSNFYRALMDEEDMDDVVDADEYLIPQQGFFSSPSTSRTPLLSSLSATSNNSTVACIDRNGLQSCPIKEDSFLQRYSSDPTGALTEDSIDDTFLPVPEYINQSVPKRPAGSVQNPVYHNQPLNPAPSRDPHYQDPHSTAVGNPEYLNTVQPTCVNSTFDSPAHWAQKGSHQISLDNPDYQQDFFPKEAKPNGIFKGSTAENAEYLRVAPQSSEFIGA
- experiment: Biochemical EGFR kinase assay (Lance Ultra TR-FRET), double mutant del19/C797S
- cond: Km ATP; read-out: IC50 del19/C797S (nM) Km ATP
Field: IC50. Provide a value for each of the compounds that follow.
Write the value in nM as a bare number.

What value of IC50 has been reported for the following compound? COc1ccc(-c2nccc(Nc3cc(N[C@H]4CC[C@@](C)(O)CC4)c(-c4ccn(C(F)F)n4)cn3)n2)cn1 [Example 165] 1260

Would you kindly share the measured IC50 for C[C@]1(O)CC[C@@H](Nc2cc(Nc3ccnc(-c4cnn(CC(F)(F)F)c4)n3)ncc2-c2ccn(C(F)F)n2)CC1 [Example 137] ? 24.3

Request the reported IC50 associated with Cn1ccc(-c2cnc(Nc3ccnc(-c4cnn(S(=O)(=O)C5CC5)c4)n3)cc2N[C@H]2CC[C@@H](NCC(F)F)CC2)n1 [Example 45] 0.6

Suppose we examine the compound CN(C)S(=O)(=O)n1ccc(-c2nccc(Nc3cc(N[C@H]4CC[C@@](C)(O)CC4)c(-c4ccn(C(F)F)n4)cn3)n2)c1 [Example 109] ; what IC50 value has been reported? 178

Given O=S(=O)(C1CC1)n1cc(-c2ncc(F)c(Nc3cc(N[C@H]4CC[C@@H](CN5CCC5)CC4)c(-c4ccn(C(F)F)n4)cn3)n2)cn1 [Example 327] , state its recorded IC50. 1.7

Suppose we examine the compound CC(C)n1cc(C#Cc2cc(Nc3ccnc(-c4cnn(S(=O)(=O)C5CC5)c4)n3)ncc2-c2cnn(C3CC3)c2)cn1 [Example 6] ; what IC50 value has been reported? 347

Given the entry Cn1nc(-c2cnc(Nc3nc(-c4cnn(S(=O)(=O)C5CC5)c4)ncc3F)cc2N[C@H]2CC[C@@](C)(O)CC2)cc1C(F)(F)F [Example 328] , report its measured IC50. 9.3

Need IC50 of O=S(=O)(C1CC1)n1cc(-c2nccc(Nc3cc(NCC4CCC(NCCF)CC4)c(-c4ccn(C(F)F)n4)cn3)n2)cn1 (stereo not shown) [Example 132] , thanks. 0.5

Entry C[C@]1(O)CC[C@@H](Nc2cc(Nc3ccnc(-c4cnc5c(c4)CCCO5)n3)ncc2-c2ccn(C(F)F)n2)CC1 [Example 176] : reported IC50 = ? 264

Bench note: what IC50 did O=S(=O)(C1CC1)n1cc(-c2nccc(Nc3cc(NCC4CCC(O)C4)c(-c4ccn(C(F)F)n4)cn3)n2)cn1 (stereo not shown) [Example 33] show? 0.5

What does the data say about its IC50? Entry: CS(=O)(=O)Cn1cc(-c2nccc(Nc3cc(N[C@H]4CC[C@@](C)(O)CC4)c(-c4ccn(C(F)F)n4)cn3)n2)cn1 [Example 150] 21.2

Need IC50 of O=S(=O)(C1CC1)n1cc(-c2nccc(Nc3cc(N[C@H]4CC[C@@H](F)CC4)c(-c4ccn(C(F)(F)F)n4)cn3)n2)cn1 [Example 286] , thanks. 90.9

# get_value(readout='IC50', item= O=S(=O)(C1CC1)n1cc(-c2nccc(Nc3cc(NC[C@H]4CC[C@@H](O)CC4)c(-c4ccn(C(F)F)n4)cn3)n2)cn1 [Example 30] ) 0.5

Any idea what IC50 was measured for O=S(=O)(C1CC1)n1cc(-c2nccc(Nc3cc(N[C@H]4CC[C@@H](NCCF)CC4)c(-c4nc(C(F)F)cs4)cn3)n2)cn1 [Example 123] ? 1.4

What measured IC50 goes with CN(C)CC1(C)CCC(Nc2cc(Nc3ccnc(-c4cnn(S(=O)(=O)C5CC5)c4)n3)ncc2-c2ccn(C)n2)CC1 (stereo not shown) [Example 238] ? 2

Would you mind telling me what IC50 value was observed for COc1cc(-c2nccc(Nc3cc(N[C@H]4CC[C@@](C)(O)CC4)c(-c4ccn(C(F)F)n4)cn3)n2)ccn1 [Example 169] ? 110

I have this compound here, Cn1nc(-c2cnc(Nc3ccnc(-c4cnn(S(=O)(=O)C5CC5)c4)n3)cc2NC[C@H]2CC[C@@H](O)C2)cc1C(F)(F)F [Example 261] , and I need its recorded IC50. 5.8

Would you kindly share the measured IC50 for Cn1cc(C#Cc2cc(Nc3ccnc(-c4cnn(S(=O)(=O)C5CC5)c4)n3)ncc2-c2cnn(C(F)F)c2)cn1 [Example 2] ? 371

For the compound shown here, COCn1cc(-c2nccc(Nc3cc(N[C@H]4CC[C@@](C)(O)CC4)c(-c4ccn(C(F)F)n4)cn3)n2)cn1 [Example 310] , give the reported IC50. 0.1

Entry O=S(=O)(C1CC1)n1cc(-c2nccc(Nc3cc(N[C@H]4CC[C@](O)(C(F)F)CC4)c(-c4ccn(C(F)F)n4)cn3)n2)cn1 [Example 200] : reported IC50 = ? 13.5

Can you share its IC50? I mean this compound: CN(C)C(=O)[C@H]1CC[C@@H](Nc2cc(Nc3ccnc(-c4cnn(S(=O)(=O)C5CC5)c4)n3)ncc2-c2ccn(C)n2)CC1 [Example 232] 0.5

Quick check: IC50 of O=S(=O)(C1CC1)n1cc(-c2nccc(Nc3cc(N[C@H]4CC[C@@H](CO)CC4)c(-c4ccn(C5CC5)n4)cn3)n2)cn1 [Example 297] ? 0.5

Quick one: IC50 of CN(C)C[C@H]1CC[C@@H](Nc2cc(Nc3ccnc(-c4cnn(S(=O)(=O)C5CC5)c4)n3)ncc2-c2ccn(C)n2)CC1 [Example 226] ? 0.1

// query IC50 value for entry Cc1cn(-c2cnc(Nc3ccnc(-c4cnn(S(=O)(=O)C5CC5)c4)n3)cc2N[C@H]2CC[C@@](C)(O)CC2)nc1C(F)(F)F [Example 186] 32.9

What does the data say about its IC50? Entry: O=S(=O)(C1CC1)n1cc(-c2nccc(Nc3cc(NC[C@H]4CC[C@H](O)CC4)c(-c4ccn(C(F)F)n4)cn3)n2)cn1 [Example 31] 0.5

* * *

- measured.on: EGFR wildtype (WT) (Homo sapiens)
- Sequence (P00533 25-1210): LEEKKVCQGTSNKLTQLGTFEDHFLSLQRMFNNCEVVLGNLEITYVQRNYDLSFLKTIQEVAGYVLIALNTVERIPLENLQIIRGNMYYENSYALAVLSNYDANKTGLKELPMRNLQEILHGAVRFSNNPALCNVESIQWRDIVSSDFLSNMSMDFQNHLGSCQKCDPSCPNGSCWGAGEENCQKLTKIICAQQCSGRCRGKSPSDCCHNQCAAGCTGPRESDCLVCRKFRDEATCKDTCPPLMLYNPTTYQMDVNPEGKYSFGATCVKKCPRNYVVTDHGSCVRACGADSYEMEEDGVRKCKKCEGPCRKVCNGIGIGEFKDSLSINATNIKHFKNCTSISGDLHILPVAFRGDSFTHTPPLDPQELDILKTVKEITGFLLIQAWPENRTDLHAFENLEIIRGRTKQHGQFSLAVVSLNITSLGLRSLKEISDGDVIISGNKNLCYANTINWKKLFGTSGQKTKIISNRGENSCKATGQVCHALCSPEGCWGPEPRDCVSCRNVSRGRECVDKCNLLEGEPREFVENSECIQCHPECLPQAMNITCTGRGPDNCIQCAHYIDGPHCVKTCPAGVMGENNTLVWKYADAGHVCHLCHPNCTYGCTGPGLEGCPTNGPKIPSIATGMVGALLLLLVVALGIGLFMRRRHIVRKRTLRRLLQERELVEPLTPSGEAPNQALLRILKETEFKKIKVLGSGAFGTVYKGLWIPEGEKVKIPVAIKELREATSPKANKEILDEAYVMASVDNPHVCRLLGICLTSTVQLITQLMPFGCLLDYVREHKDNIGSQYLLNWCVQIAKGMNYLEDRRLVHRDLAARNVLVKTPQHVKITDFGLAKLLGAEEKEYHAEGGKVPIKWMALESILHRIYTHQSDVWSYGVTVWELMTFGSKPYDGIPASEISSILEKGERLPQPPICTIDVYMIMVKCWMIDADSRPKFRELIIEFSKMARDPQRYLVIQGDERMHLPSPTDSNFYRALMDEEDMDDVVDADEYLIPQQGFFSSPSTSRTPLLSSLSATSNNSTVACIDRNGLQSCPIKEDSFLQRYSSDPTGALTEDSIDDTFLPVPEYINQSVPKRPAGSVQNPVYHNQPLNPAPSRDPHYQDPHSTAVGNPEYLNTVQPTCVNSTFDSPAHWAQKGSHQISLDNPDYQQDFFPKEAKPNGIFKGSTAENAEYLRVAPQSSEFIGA
- experiment: Biochemical EGFR kinase assay (Lance Ultra TR-FRET), wildtype
- cond: Km ATP; read-out: IC50 WT (nM) Km ATP
measured.attribute: IC50 (nM)
Answer format: numeric, nM implied, no suffix.

What measured IC50 is associated with CN(C)CC[C@H]1CC[C@@H](Nc2cc(Nc3ccnc(-c4cnn(S(=O)(=O)C5CC5)c4)n3)ncc2-c2ccn(C(F)F)n2)CC1 on EGFR wildtype (WT) (Homo sapiens)? 0.3

Look up IC50 with EGFR wildtype (WT) (Homo sapiens) for this molecule: Cn1cc(C#Cc2cc(Nc3ccnc(-c4cnn(S(=O)(=O)C5CC5)c4)n3)ncc2-c2cnn(C3CC3)c2)cn1 88.5

# returns recorded IC50 (system: EGFR wildtype (WT) (Homo sapiens)) for O=S(=O)(C1CC1)n1cc(-c2nccc(Nc3cc(OC4CCC(O)C4)c(-c4cnn(C(F)F)c4)cn3)n2)cn1 (stereo not drawn) 199

Given the entry O=S(=O)(C1CC1)n1cc(-c2nccc(Nc3cc(N[C@H]4CC[C@@H](NCCF)CC4)c(-c4csc(N5CCOCC5)n4)cn3)n2)cn1 , what IC50 was observed with EGFR wildtype (WT) (Homo sapiens)? 112

API: value(readout= IC50, system= EGFR wildtype (WT) (Homo sapiens), query= CN(C)C(=O)C[C@H]1CC[C@@H](Nc2cc(Nc3ccnc(-c4cnn(S(=O)(=O)C5CC5)c4)n3)ncc2-c2ccn(C(F)F)n2)CC1 ) 4.4

# value lookup — system EGFR wildtype (WT) (Homo sapiens), readout IC50, item Cn1cc(C#Cc2cc(Nc3ccnc(-c4cnn(S(=O)(=O)C5CC5)c4)n3)ncc2-c2cnn(CC3CC3)c2)cn1 229
